target: Human recombinant FAP (Homo sapiens); experiment: FRET-based FAP protease activity assay; assay type: biochemical; set-up: purchased R&D systems 3715-SE; conditions: pIC50 Category (Activity), FRET-peptide substrate, 37° C.
Sequence (Q12884 whole entry): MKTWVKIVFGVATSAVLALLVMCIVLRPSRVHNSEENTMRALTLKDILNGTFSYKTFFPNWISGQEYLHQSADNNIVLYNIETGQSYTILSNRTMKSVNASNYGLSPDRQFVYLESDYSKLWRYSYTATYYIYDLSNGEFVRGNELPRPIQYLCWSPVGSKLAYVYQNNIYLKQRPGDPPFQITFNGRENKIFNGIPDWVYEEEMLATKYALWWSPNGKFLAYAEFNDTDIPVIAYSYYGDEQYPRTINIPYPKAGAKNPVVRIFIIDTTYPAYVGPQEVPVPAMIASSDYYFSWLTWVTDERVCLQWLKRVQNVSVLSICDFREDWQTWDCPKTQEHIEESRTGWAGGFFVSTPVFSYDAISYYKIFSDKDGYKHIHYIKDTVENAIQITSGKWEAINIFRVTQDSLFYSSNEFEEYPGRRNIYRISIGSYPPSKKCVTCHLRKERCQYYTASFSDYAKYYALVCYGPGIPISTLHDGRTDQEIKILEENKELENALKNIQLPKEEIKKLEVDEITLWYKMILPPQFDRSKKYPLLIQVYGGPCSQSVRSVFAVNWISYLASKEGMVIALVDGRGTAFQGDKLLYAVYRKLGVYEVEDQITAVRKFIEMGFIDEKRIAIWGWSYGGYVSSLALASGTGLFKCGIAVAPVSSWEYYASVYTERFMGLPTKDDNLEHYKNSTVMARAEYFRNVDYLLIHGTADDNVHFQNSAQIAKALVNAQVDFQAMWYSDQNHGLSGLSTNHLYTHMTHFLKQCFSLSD
Result type: IC50

// below: answered compounds
Query: Can you look up the measured IC50 of CCCCCC(=O)N[C@H]1CSCc2cc(CSCCNC(=O)CCC(=O)NCCCOCCOCCOCCCNC(=O)CCC(=O)NCCCOCCOCCOCCCNC(=O)CCC(=O)NCCCOCCOCCOCCCNC(=O)CCC(=O)NCCCOCCOCCOCCCNC(=O)CCCC[C@@H]3SC[C@@H]4NC(=O)N[C@@H]43)cc(c2)CSC[C@@H](C(=O)O)NC(=O)[C@H](Cc2ccccc2)NC(=O)[C@H](CCC(N)=O)NC(=O)[C@H]([C@@H](C)O)NC(=O)[C@@H]2CCCN2C(=O)[C@@H]2CCCN2C1=O for me?
Response: 10 to 79.4 nM

Query: Can you look up the measured IC50 of CCCC[C@H](NC(=O)CCC(=O)NCCCOCCOCCOCCCNC(=O)CN1CCN(CC(=O)O)CCN(CC(=O)O)CCN(CC(=O)O)CC1)C(=O)N[C@H]1CSCc2cc(CSCCNC(=O)CN3CCN(CC(=O)O)CCN(CC(=O)O)CCN(CC(=O)O)CC3)cc(c2)CSC[C@@H](C(=O)O)NC(=O)[C@H](Cc2ccccc2)NC(=O)[C@H](CCC(N)=O)NC(=O)[C@H]([C@@H](C)O)NC(=O)[C@@H]2CCCN2C(=O)[C@@H]2CCCN2C1=O for me?
Response: 10 to 79.4 nM

Next compound, IC50 to be filled in.
Query: Can you look up the measured IC50 of COCCCC(=O)N[C@H]1CSCc2cc(CSCCNC(=O)CN3CCN(CC(=O)O)CCN(CC(=O)O)CCN(CC(=O)O)CC3)cc(c2)CSC[C@@H](C(=O)O)NC(=O)[C@H](Cc2ccccc2)NC(=O)[C@H](CCC(N)=O)NC(=O)[C@H]([C@@H](C)O)NC(=O)[C@@H]2CCCN2C(=O)[C@@H]2CCCN2C1=O for me?
Response: 10 to 79.4 nM
